tested on: ZR-75-1 Tam2; experiment: viability inhibition at highest dose (% inhibition); higher = more growth inhibition; conditions: 4-OH-tamoxifen in medium 1 µM; 72 h
REPORTED ENDPOINT: viability inhibition at highest dose

Item C=CC[C@@H]1/C=C(\C)C[C@H](C)C[C@H](OC)[C@H]2O[C@@](O)(C(=O)C(=O)N3CCCC[C@H]3C(=O)O[C@H](/C(C)=C/[C@@H]3CC[C@@H](O)[C@H](OC)C3)[C@H](C)[C@@H](O)CC1=O)[C@H](C)C[C@@H]2OC [Tacrolimus (FK 506)] (drug 10000 nM) has what recorded viability inhibition at highest dose?
11.5

Requested field: viability inhibition at highest dose. Item: O=c1[nH]c(=O)n([C@H]2C[C@H](O)[C@@H](CO)O2)cc1F [Floxuridine] (drug 10000 nM)
18.5

Quick one: viability inhibition at highest dose for O=C(O)CCCc1ccc(N(CCCl)CCCl)cc1 [Chlorambucil] (drug 10000 nM) ?
-11.1

What value of viability inhibition at highest dose has been reported for the following compound? O=C(O)CC[C@H]1CC[C@@](c2cc(F)ccc2F)(S(=O)(=O)c2ccc(Cl)cc2)CC1 [MK-0752] (drug 1000 nM)
-2.73

Quick one: viability inhibition at highest dose for COc1c2occc2cc2ccc(=O)oc12 [Methoxsalen] (drug 10000 nM) ?
-6.82

Dear colleague, I am looking for the recorded viability inhibition at highest dose of the following compound: O=C1CCC(N2C(=O)c3ccccc3C2=O)C(=O)N1 (centres undefined) [Thalidomide] (drug 10000 nM)
-1.28

Fill blank: measured viability inhibition at highest dose of the compound COc1nc(N)nc2c1ncn2[C@@H]1O[C@H](CO)[C@@H](O)[C@@H]1O [Nelarabine] (drug 10000 nM) is ____.
2.19

For the compound NC(=O)c1cccc2cn(-c3ccc([C@@H]4CCCNC4)cc3)nc12 [MK-4827] (drug 10000 nM) , what viability inhibition at highest dose is on record?
9.71

Could you share which viability inhibition at highest dose value was measured for NC(=O)NO [Hydroxyurea] (drug 100000 nM) ?
-8.32
